- target.entity: T1, anti-CD28 Fab (SEQ ID NOs: 696, 697)
- T1 construct: In the phage ELISA the Fab was biotinylated and captured on neutravidin coated plates
- test.name: phage ELISA; biotinylated anti-CD28 Fab on neutravidin plate, clonal phage supernatant, anti-M13 HRP detection;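 further: crude supernatants of single phage clones picked after panning were screened for binding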
// reported Phage binding ELISA, Anti-CD28 Fab (SEQ ID NOs: 696, 697) signal per item
Just the number, please, no unit attached.

Would you mind telling me what Phage binding ELISA, Anti-CD28 Fab (SEQ ID NOs: 696, 697) signal value was observed for YCEGHAPEYIRKCL [Phage-483] ?
1.63

What measured Phage binding ELISA, Anti-CD28 Fab (SEQ ID NOs: 696, 697) signal goes with DCPWLSGFSRPLLC (also called Peptide-93) [Phage-472] ?
1.27

Give the measured Phage binding ELISA, Anti-CD28 Fab (SEQ ID NOs: 696, 697) signal of YCEGHRPEYILKCL [Phage-479] .
1.27

What value of measured Phage binding ELISA, Anti-CD28 Fab (SEQ ID NOs: 696, 697) signal is listed for YCEGHEGIYFWKCL [Phage-480] ?
2.07

Item under review: YCAGHSHEYLAKCE (also called Peptide-98) [Phage-477] . Reported Phage binding ELISA, Anti-CD28 Fab (SEQ ID NOs: 696, 697) signal?
0.86

Suppose we examine the binder YCEGHSPEYILKCL [Phage-478] ; what Phage binding ELISA, Anti-CD28 Fab (SEQ ID NOs: 696, 697) signal value has been reported?
1.75

Form field: reported Phage binding ELISA, Anti-CD28 Fab (SEQ ID NOs: 696, 697) signal of YCAGHTEEHYVKCM (also called Peptide-96) [Phage-475]
0.62

Could you share which Phage binding ELISA, Anti-CD28 Fab (SEQ ID NOs: 696, 697) signal value was measured for YCEGHLPEYIEKCL (also called Peptide-120) [Phage-481] ?
2.06

Give its Phage binding ELISA, Anti-CD28 Fab (SEQ ID NOs: 696, 697) signal value. Item: YCAGMSTIQLWLKC (also called Peptide-94) [Phage-473]
2.16

So what's the measured Phage binding ELISA, Anti-CD28 Fab (SEQ ID NOs: 696, 697) signal for this one? YCEGHAPEYIAKCL [Phage-482]
2.15
